# assay-text: COS7 lysate on small-molecule microarray, probe aHis, 635 nm (AID 1123);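 also: z-score combines 667nm fluorescence intensity with signal-to-noise per printed compound spot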
# test-context: COS7 cell lysate, fluorescence, higher = more signal
Dear colleague, classification is by composite z-score, with ranges listed here: category 1 (below 0.8), category 2 (0.8 to below 2), category 3 (2 or more)

{"columns": ["compound", "category"],
 "data": [
  ["COc1ccc([Si](C)(C)[C@H]2[C@H](CC(=O)N(CCO)Cc3ccccc3)O[C@@]3(C(=O)N(Cc4cccc(N5CCOC5=O)c4)c4ccccc43)[C@@H]2C)cc1", "category 2"],
  ["CN(C)C(=O)[C@@]1(Cc2ccccc2CN=[N+]=[N-])N=C(c2ccc(OCCCO)cc2)O[C@H]1c1ccccc1CN=[N+]=[N-]", "category 3"],
  ["COc1ccc([Si](C)(C)[C@@H]2[C@@H](CCO)O[C@]3(C(=O)N(Cc4ccc(N5CCCCC5=O)cc4)c4ccccc43)[C@H]2C)cc1", "category 2"],
  ["COc1ccc(CCN2C(=O)[C@@]3(Cc4ccccc42)c2ccccc2C(=O)N(Cc2ccccc2OC)[C@H]3c2ccc(CO)cc2)cc1", "category 1"],
  ["CC1=C[C@@]2(CO)C(=O)[C@]3(CO3)[C@@H]1[C@H]1[C@]2(C)C=C(CO)C(=O)[C@]12CO2", "category 1"],
  ["CC(CO)N1C(=O)[C@@H]2[C@H]3C(=O)OCC=C[C@H]3OC23C=CCN(CCN2CCOCC2)C(=O)[C@@H]13 (some centres undefined)", "category 1"],
  ["COCCOC(=O)N1C(=O)[C@@]2(c3cc(C#CC4=CCCCC4)ccc31)[C@H](c1ccccc1OCCO)N1[C@H](c3ccccc3)[C@H](c3ccccc3)OC(=O)[C@H]1[C@@H]2C(=O)Nc1nc2ccccc2s1", "category 2"],
  ["COc1ccc(NC(=O)O[C@H]2[C@H](OC(=O)Nc3ccccc3)[C@H](OC(=O)Nc3ccccc3)[C@@H](OC)O[C@@H]2CO)cc1", "category 3"],
  ["O=C1O[C@H](c2ccccc2)[C@H](c2ccccc2)N2[C@H]1[C@@H](C(=O)Nc1nc3ccccc3s1)[C@]1(C(=O)Nc3ccc(C#CCCO)cc31)[C@H]2c1ccc(O)cc1", "category 2"],
  ["Cc1ccccc1C(O)C1C=CC2C(=O)N(C)C(=O)C2N1N(c1ccccc1)c1ccccc1 (centres undefined)", "category 1"]
]}

## Task Returns: class label. Input: `CO[C@H]1O[C@H](CO)[C@@H](OC(=O)Nc2ccccc2-c2ccccc2)[C@H](OC(=O)Nc2ccc3c(c2)OCO3)[C@H]1OC(=O)Nc1ccc2c(c1)OCO2`
## Result category 3
